Reference for the values: patent US20240209086A1

Molecular target: canine CD3 on canine T cells (canine PBMC) (canine, UniProt P27597 22-202)
Sequence (P27597 22-202 limits assumed, chain 1 of 3): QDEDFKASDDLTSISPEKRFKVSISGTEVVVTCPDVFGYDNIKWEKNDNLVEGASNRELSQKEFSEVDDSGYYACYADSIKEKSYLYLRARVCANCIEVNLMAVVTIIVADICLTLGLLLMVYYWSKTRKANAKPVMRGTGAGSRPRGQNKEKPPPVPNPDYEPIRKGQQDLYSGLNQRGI
Sequence (chain, as listed by the source limits assumed, chain 2 of 3): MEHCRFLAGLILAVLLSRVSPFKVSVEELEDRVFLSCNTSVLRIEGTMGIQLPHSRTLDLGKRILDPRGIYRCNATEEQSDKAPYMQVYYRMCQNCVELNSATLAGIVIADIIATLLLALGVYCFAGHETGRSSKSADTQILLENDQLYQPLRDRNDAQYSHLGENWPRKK
Sequence (chain, as listed by the source limits assumed, chain 3 of 3): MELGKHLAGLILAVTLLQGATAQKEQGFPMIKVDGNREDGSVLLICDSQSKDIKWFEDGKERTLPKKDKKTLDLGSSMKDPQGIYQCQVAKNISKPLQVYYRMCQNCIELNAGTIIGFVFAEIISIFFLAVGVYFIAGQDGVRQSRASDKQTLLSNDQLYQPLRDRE
Experiment: cell-based or functional assay
EXPERIMENTAL ENDPOINT: Ki67 Proliferation, Day 9, IS
Keep it simple and answer with nothing but the number.

1. PMX178 (monospecific anti-canine CD3, canine IgG-B effector function deficient Fc) (antibody, V domains shown) VH: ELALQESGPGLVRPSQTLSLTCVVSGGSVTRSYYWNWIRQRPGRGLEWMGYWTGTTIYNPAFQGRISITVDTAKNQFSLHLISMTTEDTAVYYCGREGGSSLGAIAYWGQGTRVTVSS VL: SYVLTQLPSKNVTLKQPAHITCGGDNIGRKSVHWYQQKLGQAPVLIIYYDSSRPTGIPERFSGANSGNTATLTISGALAEDEADYYCQVWDSSAKAAVFGGGTHLTVL; 1.83

Field request: Ki67 Proliferation, Day 9, IS | item: PMX193 (monospecific anti-canine CD3, canine IgG-B effector function deficient Fc) (antibody, V domains shown) VH: EVQLVESGGDLVKPGGSLRLSCVASGFTFSTYHMSWVRQAPGKGLQWVAYISSGGSRTNYADAVKGRFTISRDNAKNTLYLQMNSLRAEDAAVFYCARHYGSSLFDYWGQGTLVTVSS VL: DIVMTQTPLSLSVSPGEPASISCKASQSLLHINGNTYLYWFRQKPGQSPQRLIYKVSNRDPGVPDRFSGSGSGTDFTLRISRVEADDAGVYYCGQGIQDPTFGKGTHLEIK 1.53

Form field: reported Ki67 Proliferation, Day 9, IS of PMX197 (monospecific anti-canine CD3, canine IgG-B effector function deficient Fc) (antibody, V domains shown) VH: ELTLQESGPGLVKPSQTLSLTCLVSGGSVTRSYYWNWIRQRPGRGLEWMGYWTGSTNYNPAFQGRISIIPDTAKNQFSLQLTSMTTDDTAIYFCAREGGRTLGAFADWGQGTLVTVSS VL: SYVLTQLPSKNVTLKQPAHITCGGDKIGSKNVHWYQQKLGQAPVLIIYYDSSRPTGIPERFSGANSGNTATLTISGALAEDEADYYCQVWDSSAKASVFGGGTHLTVL 3.21

Which value of Ki67 Proliferation, Day 9, IS has been reported for PMX167 (monospecific anti-canine CD3, canine IgG-B effector function deficient Fc) (antibody, V domains shown) VH: EVKLVESGGDLVKPGGSLRLSCMASGFTLNNYYMSWVRQAPGKGLQWVAYIKSGGSDTSYVDAVKGRFTISRDNAKNTLHLQMNSLRVEDTAVYYCATDGYIWAWGQGTLVTVSS VL: SYVLTQLPSKNVTLKQPAHITCGGDNIGSKSVHWYQQKLGQAPVLIIYYDNSRPTGIPERFSGAKSGNTATLTISGALAEDEADYYCQVWDSSSKAYVFGSGTQLTVL in the records? 2.66

Would you mind telling me what Ki67 Proliferation, Day 9, IS value was observed for PMX184 (monospecific anti-canine CD3, canine IgG-B effector function deficient Fc) (antibody, V domains shown) VH: ELTLQESGPGLVKPSQTLSLTCGVSGGSVTRSHYWNWVRQRPGRGLEWMGYWTGSTNYNPAFQGRISITADTAKNQFSLQLRSMTTEDTAVYFCARETTIPTFFFDYWGQGTLVTVSS VL: SYVLTQLPSKNVTLKQPAHITCGGDNIGSKSVHWYQQKLGQAPVLIIYYDSSRPTGIPERFSGANSGNTATLTISGALAEDEADYYCQVWDSGAKAWVFGEGTQLTVL ? 1.64

Look up Ki67 Proliferation, Day 9, IS: PMX192 (monospecific anti-canine CD3, canine IgG-B effector function deficient Fc) (antibody, V domains shown) VH: EVQLVESGGDLVKPAGSLRLSCVASGFTFSDYSMSWVRQAPEKGLQLVAGINGDGSTTYYTDAVKGRFTISRDNAKNTVYLQMNSLRAEDTAMYYCAKGAGTGDFWGQGTLVTVSS VL: SYELTQPPSVNVTLRETAHITCGGASIGRKYVQWIQQIPGQAPVVIIYKDSNRPTGIPERFSGANSGNTATLTISGALAEDEADYYCQVGDSGAWVFGEGTQLTVL 3.65

Suppose we examine the binder PMX157 (monospecific anti-canine CD3, canine IgG-B effector function deficient Fc) (antibody, V domains shown) VH: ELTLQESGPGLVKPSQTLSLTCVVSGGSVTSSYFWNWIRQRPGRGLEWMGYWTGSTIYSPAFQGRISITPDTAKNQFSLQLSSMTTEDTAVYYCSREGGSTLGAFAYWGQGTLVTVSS VL: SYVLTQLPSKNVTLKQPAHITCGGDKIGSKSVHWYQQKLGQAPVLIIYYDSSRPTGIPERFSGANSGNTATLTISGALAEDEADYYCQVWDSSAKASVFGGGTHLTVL ; what Ki67 Proliferation, Day 9, IS value has been reported? 0.85

Fill in the blank: the reported Ki67 Proliferation, Day 9, IS of PMX191 (monospecific anti-canine CD3, canine IgG-B effector function deficient Fc) (antibody, V domains shown) VH: EVQLVESGGDLVKPAGSLRLSCVASGFTFSDYSMSWVRQGPEKGLQLVAGMNSDGSTTYYTDAVRGRFTISRDNAKNTMYLQMNSLRDEDTAIYYCAKGAAAPDYWGQGTLVTVSS VL: SYELTQPPSVNVTLRETAHITCGGDRIGSKYVQWIQQIPGQAPVVIIYKDNNRPTGIPERFSGANSGNTATLTISGALAEDEADYYCQVGDNYTWVFGEGTQLTVL is ____. 2.89

Any idea what Ki67 Proliferation, Day 9, IS was measured for PMX195 (monospecific anti-canine CD3, canine IgG-B effector function deficient Fc) (antibody, V domains shown) VH: EVQLVESGGDLVKPAGSLRLSCMASGFTFSSYSMSWVRQAPEKGLQLVAGINGDGSTTYYTDAVKGRFTISRDNAKNTVYLQMNNLRVEDSAMYYCAKGAGTGDYWGQGTLVTVSS VL: SYELTQPPSLNVTLRETAHITCGGDRIGSRYVQWIQQNPGQAPVVVIYKDSNRPTGIPERFSGANSGNTATLTISGALAEDEADYYCQVGDSGNWVFGGGTQLTVL ? 2.33

Looking for the measured Ki67 Proliferation, Day 9, IS of PMX175 (monospecific anti-canine CD3, canine IgG-B effector function deficient Fc) (antibody, V domains shown) VH: ELTLQESGPGLVKPSQTLSLTCVVSGGSVTSTYYWNWIRQRPGRGLEWMGYWTGTTNYNPAFQGRISITADTAKNQFSLQLSSMTTEDTAVYYCAREDLVTVGSGAFNYWGQGTLVTVSS VL: SYVLTQLPSKNVTLKQPAHITCGGDNIGSKSVHWYQQKLGQAPVLIIYYDSSRPTGIPERFSGANSGNTATLTISGALAEDEADYYCQVWDSSATWVFGEGTQLTVL , can you help? 1
